tested target: gastrin receptor (Mus musculus, UniProt P56481)
Construct: assayed for gastrin activity using the mouse stomach assay; from tissue; host or cells: isolated mouse stomach
Sequence (P56481 whole entry): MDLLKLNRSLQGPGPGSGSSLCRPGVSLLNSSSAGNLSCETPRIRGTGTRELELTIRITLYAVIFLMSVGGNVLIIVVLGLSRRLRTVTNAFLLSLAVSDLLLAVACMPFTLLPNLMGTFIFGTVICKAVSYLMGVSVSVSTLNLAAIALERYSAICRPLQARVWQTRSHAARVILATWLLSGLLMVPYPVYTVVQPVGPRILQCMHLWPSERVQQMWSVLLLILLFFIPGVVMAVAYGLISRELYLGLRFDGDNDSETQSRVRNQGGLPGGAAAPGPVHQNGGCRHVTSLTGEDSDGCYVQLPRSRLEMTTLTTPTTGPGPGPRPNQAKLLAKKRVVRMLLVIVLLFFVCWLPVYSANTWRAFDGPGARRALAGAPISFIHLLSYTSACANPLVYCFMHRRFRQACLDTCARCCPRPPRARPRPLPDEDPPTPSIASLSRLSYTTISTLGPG
experimental details: mouse stomach assay for gastrin activity (isolated stomach, acid secretion)
Type: cell-based
stated conditions: mouse stomach; 10^-5 M test compound; relative to pentagastrin; NS = not significant
Non-standard residues stand in square brackets, D forms with d. Residues, ends and D or L forms follow the SMILES beside them. *: point of attachment. Phe(4-Cl) = N[C@@H](Cc1ccc(Cl)cc1)C(=O)O; 2Nal = N[C@@H](Cc1ccc2ccccc2c1)C(=O)O; Boc = CC(C)(C)OC(=O)*
readout type: Acid seretion at 10^-5 M test compound, relative to pentagastrin (%)
Number in %, nothing else.

# compound, tested target, reported
rows = [
    ("CC(C)(C)OC(=O)N[C@@H](Cc1c[nH]c2ccccc12)C(=O)N[C@@H](Cc1ccc2ccccc2c1)C(=O)N[C@@H](CC(=O)O)C(=O)NCCc1ccc(Cl)c(Cl)c1", "gastrin receptor (Mus musculus, UniProt P56481)", 30),
    ("CC(C)(C)OC(=O)N[C@@H](Cc1c[nH]c2ccccc12)C(=O)N[C@@H](Cc1ccc2ccccc2c1)C(=O)N[C@@H](CC(=O)O)C(=O)N[C@@H](Cc1ccccc1)C(N)=O [Example 1] (Boc-W[2Nal]DF-NH2)", "gastrin receptor (Mus musculus, UniProt P56481)", 65),
    ("COc1ccc2[nH]cc(CC(NC(=O)OC(C)(C)C)C(=O)N[C@@H](Cc3ccc4ccccc4c3)C(=O)N[C@@H](CC(=O)O)C(=O)N[C@@H](Cc3ccccc3)C(N)=O)c2c1 (mixture of isomers)", "gastrin receptor (Mus musculus, UniProt P56481)", 80),
    ("COc1ccccc1CCNC(=O)[C@H](CC(=O)O)NC(=O)[C@H](Cc1ccc2ccccc2c1)NC(=O)[C@H](Cc1c[nH]c2ccccc12)NC(=O)OC(C)(C)C", "gastrin receptor (Mus musculus, UniProt P56481)", 22),
    ("NC(=O)[C@H](Cc1ccccc1)NC(=O)[C@H](CC(=O)O)NC(=O)[C@H](Cc1ccc2ccccc2c1)NC(=O)Cc1c[nH]c2ccccc12", "gastrin receptor (Mus musculus, UniProt P56481)", 33),
]

Need Acid seretion at 10^-5 M test compound, relative to pentagastrin (%) of CNC(=O)[C@H](Cc1ccccc1)NC(=O)[C@H](CC(=O)O)NC(=O)[C@H](Cc1ccc2ccccc2c1)NC(=O)[C@H](Cc1c[nH]c2ccccc12)NC(=O)OC(C)(C)C [Example 5] (Boc-W[2Nal]DF-NHMe) , thanks.
23

Also `CC(C)(C)OC(=O)N[C@@H](Cc1c[nH]c2ccccc12)C(=O)N[C@@H](Cc1ccc2ccccc2c1)C(=O)N[C@@H](CC(=O)O)C(=O)NCCc1ccc(F)cc1` , if possible.
25

Input CN(C)C(=O)[C@H](Cc1ccccc1)NC(=O)[C@H](CC(=O)O)NC(=O)[C@H](Cc1ccc2ccccc2c1)NC(=O)[C@H](Cc1c[nH]c2ccccc12)NC(=O)OC(C)(C)C [Example 6] (Boc-W[2Nal]DF-NMe2)
22

// next record CC(C)(C)OC(=O)N[C@@H](Cc1c[nH]c2ccccc12)C(=O)N[C@@H](Cc1ccc2ccccc2c1)C(=O)N[C@@H](CC(=O)O)C(=O)N[C@@H]1CCC[C@@H]1c1ccccc1 (single isomer, unassigned; diastereomer 2)
40

Repeat for the following compound: CC(C)(C)OC(=O)N[C@@H](Cc1c[nH]c2ccccc12)C(=O)N[C@@H](Cc1ccc2ccccc2c1)C(=O)N[C@@H](CC(=O)O)C(=O)N[C@@H](Cc1ccc(Cl)cc1)C(N)=O [Example 11] (Boc-W[2Nal]D[Phe(4-Cl)]-NH2)
60

---

tested target: gastrin receptor (Cavia porcellus)
Construct: Strips of muscle (approximately 2.5 cm by 1 cm) are removed from the proximal area of the stomach; from tissue; host or cells: guinea-pig proximal stomach (fundus) muscle strips
Sequence (H0VZC5 1-426): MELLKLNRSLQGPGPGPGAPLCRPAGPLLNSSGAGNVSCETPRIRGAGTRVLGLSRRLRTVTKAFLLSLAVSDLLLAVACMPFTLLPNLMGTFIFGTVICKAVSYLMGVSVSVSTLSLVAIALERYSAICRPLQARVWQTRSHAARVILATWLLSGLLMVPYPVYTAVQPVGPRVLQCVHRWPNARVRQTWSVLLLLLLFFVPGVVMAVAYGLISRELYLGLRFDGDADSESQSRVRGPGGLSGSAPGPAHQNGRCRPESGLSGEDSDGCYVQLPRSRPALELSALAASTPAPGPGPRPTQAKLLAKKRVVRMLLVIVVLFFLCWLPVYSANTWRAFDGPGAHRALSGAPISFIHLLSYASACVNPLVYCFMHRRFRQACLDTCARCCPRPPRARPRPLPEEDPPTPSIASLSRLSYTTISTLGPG
experimental details: guinea-pig fundus assay for gastrin activity (stomach muscle strips)
Format: cell-based
stated conditions: 10^-8 M devazepide present, 60 minute equilibration, agonist e.g. pentagastrin, standard errors less than 5%
Non-standard residues stand in square brackets, D forms with d. Residues, ends and D or L forms follow the SMILES beside them. *: point of attachment. 2Nal = N[C@@H](Cc1ccc2ccccc2c1)C(=O)O; Boc = CC(C)(C)OC(=O)*
readout type: pKB
Give your answer as a number; write no unit.

Example entries and their recorded answers appear below.
# compound, tested target, reported
measured = [
    ("CC(C)(C)OC(=O)N[C@@H](Cc1c[nH]c2ccccc12)C(=O)N[C@@H](Cc1ccc2ccccc2c1)C(=O)N[C@H](CC(=O)O)C(=O)NCCc1ccc(F)cc1", "gastrin receptor (Cavia porcellus)", 5.9),
    ("CC(C)(C)CCNC(=O)[C@H](CC(=O)O)NC(=O)[C@H](Cc1ccc2ccccc2c1)NC(=O)[C@H](Cc1c[nH]c2ccccc12)NC(=O)OC(C)(C)C", "gastrin receptor (Cavia porcellus)", 5.9),
    ("CC(C)(C)OC(=O)N[C@@H](Cc1c[nH]c2ccccc12)C(=O)N[C@@H](Cc1ccc2ccccc2c1)C(=O)N[C@@H](CC(=O)O)C(=O)NCCc1ccc(N)cc1", "gastrin receptor (Cavia porcellus)", 6.0),
    ("COc1ccc(C[C@H](NC(=O)[C@H](CC(=O)O)NC(=O)[C@H](Cc2ccc3ccccc3c2)NC(=O)[C@H](Cc2c[nH]c3ccccc23)NC(=O)OC(C)(C)C)C(N)=O)cc1 [Example 7] (Boc-W[2Nal]DY(Me)-NH2)", "gastrin receptor (Cavia porcellus)", 5.3),
    ("CC(C)(C)OC(=O)N[C@@H](Cc1c[nH]c2ccccc12)C(=O)N[C@@](C)(Cc1ccc2ccccc2c1)C(=O)N[C@@H](CC(=O)O)C(=O)N[C@@H](Cc1ccccc1)C(N)=O", "gastrin receptor (Cavia porcellus)", 5.6),
    ("COc1ccc(CNC(=O)[C@H](CC(=O)O)NC(=O)[C@H](Cc2ccc3ccccc3c2)NC(=O)[C@H](Cc2c[nH]c3ccccc23)NC(=O)OC(C)(C)C)cc1", "gastrin receptor (Cavia porcellus)", 5.7),
    ("CC(C)(C)OC(=O)N[C@@H](Cc1c[nH]c2ccccc12)C(=O)N[C@@H](Cc1ccc2ccccc2c1)C(=O)N[C@@H](CC(=O)O)C(=O)NCCc1ccccc1F", "gastrin receptor (Cavia porcellus)", 6.2),
    ("CC(C)(C)OC(=O)N[C@@H](Cc1c[nH]c2ccccc12)C(=O)N[C@@H](Cc1ccc2ccccc2c1)C(=O)N[C@@H](CC(=O)O)C(=O)NCCc1ccc(S(N)(=O)=O)cc1", "gastrin receptor (Cavia porcellus)", 6.2),
]

Requested read-out: pKB. Entry: `Cc1cccc(CCNC(=O)[C@H](CC(=O)O)NC(=O)[C@H](Cc2ccc3ccccc3c2)NC(=O)[C@H](Cc2c[nH]c3ccccc23)NC(=O)OC(C)(C)C)c1`
5.4

Would you mind doing CC(C)(C)OC(=O)N[C@@H](Cc1c[nH]c2ccccc12)C(=O)N[C@@H](Cc1ccc2ccccc2c1)C(=O)N[C@@H](CC(=O)O)C(=O)N[C@@H]1CCC[C@H]1c1ccccc1 (single isomer, unassigned; diastereomer 2) [Example 32] as well?
6.1

Request: `CC(C)(C)OC(=O)N[C@@H](Cc1c[nH]c2ccccc12)C(=O)N[C@@H](Cc1ccc2ccccc2c1)C(=O)N[C@@H](CC(=O)O)C(=O)NCCc1cccc(F)c1`
6.1

Again, but for CC(C)(C)OC(=O)N[C@@H](Cc1c[nH]c2ccccc12)C(=O)N[C@@H](Cc1ccc2ccccc2c1)C(=O)N[C@@H](CC(=O)O)C(=O)N[C@@H]1CCC[C@H]1c1ccccc1 (single isomer, unassigned; diastereomer 1) [Example 31]
6.1

---

tested target: gastrin receptor (Cavia porcellus)
Construct: Strips of muscle (approximately 2.5 cm by 1 cm) are removed from the proximal area of the stomach; from tissue; host or cells: guinea-pig proximal stomach (fundus) muscle strips
experimental details: guinea-pig fundus assay for gastrin activity (stomach muscle strips)
Type: cell-based
stated conditions: 10^-8 M devazepide present, 60 minute equilibration, agonist e.g. pentagastrin, standard errors less than 5%
Non-standard residues stand in square brackets, D forms with d. Residues, ends and D or L forms follow the SMILES beside them. *: point of attachment. Trp(5-F) = N[C@@H](Cc1c[nH]c2ccc(F)cc12)C(=O)O; 2Nal = N[C@@H](Cc1ccc2ccccc2c1)C(=O)O; d2Nal = N[C@H](Cc1ccc2ccccc2c1)C(=O)O; Boc = CC(C)(C)OC(=O)*; For = O=C*
Measured Kb, listed per entry for reference.
Provide the reading as a plain figure in nM.

Illustrative cases are given below, each with its answer.
# compound, readout type, reported
rows = [
    ("CC(C)(C)OC(=O)N[C@@H](Cc1c[nH]c2ccccc12)C(=O)N[C@@H](Cc1ccc2ccccc2c1)C(=O)N[C@@H](CC(=O)O)C(=O)N[C@@H](Cc1ccccc1)C(N)=O [Example 1] (Boc-W[2Nal]DF-NH2)", "Kb", 3160),
    ("NC(=O)[C@H](Cc1ccccc1)NC(=O)[C@H](CC(=O)O)NC(=O)[C@H](Cc1ccc2ccccc2c1)NC(=O)[C@H](Cc1c[nH]c2ccccc12)NC=O [Example 15] (For-W[2Nal]DF-NH2)", "Kb", 5010),
    ("CC(C)(C)OC(=O)N[C@@H](Cc1c[nH]c2ccc(F)cc12)C(=O)N[C@@H](Cc1ccc2ccccc2c1)C(=O)N[C@@H](CC(=O)O)C(=O)N[C@@H](Cc1ccccc1)C(N)=O [Example 18] (Boc-[Trp(5-F)][2Nal]DF-NH2)", "Kb", 1260),
]

Note: attention shifts to another entry.
Please report the recorded Kb for CC(C)(C)OC(=O)N[C@@H](Cc1c[nH]c2ccccc12)C(=O)N[C@H](Cc1ccc2ccccc2c1)C(=O)N[C@@H](CC(=O)O)C(=O)N[C@@H](Cc1ccccc1)C(N)=O [Example 3] (Boc-W[d2Nal]DF-NH2) .
2510

The measurements presented in this section are drawn from patent US5486597A.
